Test system: NCI-H23
Test: NCI tumour cell line growth inhibition, 48 h
Activity calls are given as the source filed them. Cut-off read from the data, not from the text of the source: active = GI50 up to about 1.1 µM and inactive = higher.
Your reply should match one of these outcome classes. active, inactive

compound=COC(=O)[C@]12CC[C@H]3CN(S(=O)(=O)c4ccc(C)cc4)[C@H]([C@H]31)[C@H](c1ccco1)N2S(=O)(=O)c1ccc(C)cc1 answer_label=inactive
compound=Cc1ccc(S(=O)(=O)N2CCN(CCO)CCN(S(=O)(=O)c3ccc(C)cc3)CCN(CCO)CC2)cc1 answer_label=inactive
compound="CC(=O)OC1CC2OC(Cc3ccccc32)O1 (configuration not stated)" answer_label=inactive
compound="CC1OC(n2cc(C(F)(F)F)c(=O)[nH]c2=O)C=CC1=O (configuration not stated)" answer_label=inactive
compound="COc1ccc(C2CC(=O)CC(c3ccc(OC)cc3)C23C(=O)NC(=O)NC3=O)cc1 (configuration not stated)" answer_label=inactive

Give the logged outcome of this assay for the following compound: Cc1ccc(-c2cc(O)c3cc4c(cc3n2)OCO4)cc1
active

And then COc1cc(NC(C)=O)c2[nH]c3c(C)cc(NC(C)=O)c(C)c3c2c1 , what is it?
inactive

Cc1ccccc1NC(=O)/C(=N\NC(N)=S)C(C#N)c1ccccc1 (configuration not stated) , same question.
inactive

Consider next the compound COc1cc(OC)c(C(=O)c2cccs2)cc1N in the same way.
inactive

Next record, please: O=C1C(Cl)C(c2ccccc2O)N1n1cnc2ccccc2c1=O (configuration not stated)
inactive

* * *

System: UACC-62
Test: NCI tumour cell line growth inhibition, 48 h
Activity calls are given as the source filed them. No stated cut-off is given here; in the data, active = GI50 up to about 1.1 µM and inactive = higher.
Consider the following molecules and their measured GI50 readings.

Below, each entry is followed by its recorded GI50 result.
molecule=COc1cc(OCc2ccc3nc(-c4ccccc4)c(N)nc3c2)cc(OC)c1OC readout_kind=GI50 obs_value="13.4 µM (inactive)"
molecule="C=CCNC(=O)CN(CC(=O)O)C1CCCCC1N(CC(=O)O)CC(=O)O (configuration not stated)" readout_kind=GI50 obs_value="> 100 µM (inactive)"
molecule="COC(=O)C(Cc1nc2ccc(Cl)cc2nc1O)/C(=N/O)C(=O)Nc1cccc(Cl)c1C (configuration not stated)" readout_kind=GI50 obs_value="> 100 µM (inactive)"

Here is the next item to consider.
Fill in the recorded GI50 for this molecule, with UACC-62 as test system: NCCNc1ccc(NCCN)c2c1C(=O)c1c(O)ccc(O)c1C2=O
0.0108 µM (active)

* * *

Tested on: SK-MEL-2
Assay: NCI tumour cell line growth inhibition, 48 h
Activity calls are given as the source filed them. Rule as the data show it: active = GI50 up to about 1.1 µM and inactive = higher.
Form entry, call: pick from y for active, n for inactive

For orientation, consider the following solved cases.
compound=Cc1c(Cl)ccc2[s+]snc12 assay_system=SK-MEL-2 answer_label=n
compound="CC(=O)OCC1OC(NC(=S)CCSc2nc3ccccc3c(=O)n2-c2ccccc2)C(OC(C)=O)C(OC(C)=O)C1OC(C)=O (stereo not given)" assay_system=SK-MEL-2 answer_label=n
compound=O=C(N/N=C/c1ccc([N+](=O)[O-])cc1)Nc1ccc(Br)cc1 assay_system=SK-MEL-2 answer_label=n
compound=COc1cc2c(c(OC)c1OC)-c1ccc(SC)c(=O)cc1[C@@H](NCc1ccc(C#N)cc1)CC2 assay_system=SK-MEL-2 answer_label=y
compound=CCC(=O)NC(Nc1ccc(O)cc1)(C(F)(F)F)C(F)(F)F assay_system=SK-MEL-2 answer_label=n
compound=Cc1cc(C)c(S(=O)(=O)N(CCCCCCN)OCCCON(CCCCCCN)S(=O)(=O)c2c(C)cc(C)cc2C)c(C)c1 assay_system=SK-MEL-2 answer_label=n
compound=COC(=O)[C@]12CC[C@H]3CN(S(=O)(=O)c4ccc(C)cc4)[C@H]([C@H]31)[C@H](c1ccco1)N2S(=O)(=O)c1ccc(C)cc1 assay_system=SK-MEL-2 answer_label=n
compound=Cc1nc2ccc(NCCN(C)C)c3c(=O)c4cc(O)ccc4n1c23 assay_system=SK-MEL-2 answer_label=n
compound="O=CC1OC(=O)c2cc(O)c(O)c(O)c2-c2c(cc(O)c(O)c2O)C(=O)OC1C(O)C(O)CO (stereo not given)" assay_system=SK-MEL-2 answer_label=n
compound="O=C1CC(c2ccc(Cl)cc2)Oc2ccccc21 (stereo not given)" assay_system=SK-MEL-2 answer_label=n

Name the outcome recorded for N#CC1(C#N)NC(c2cccs2)C(C#N)(C#N)NC1c1cccs1 (stereo not given) in the assay.
n

COc1cc(OC)c2c(c1)OC(c1cccnc1)C(c1ccccc1)C2=O (stereo not given) , same question.
n
